Sourced from the OligoGym collection

Experimental Parameters: siRNA; also: test system not given here
HELM strings list units from the 5' end as sugar, base in round brackets, then linkage (d deoxyribose, r ribose, m 2'-O-methyl, p phosphodiester). Strings are as the collection lists them, not checked against the first reports. ss, as = sense and antisense strand; [lna] = locked nucleic acid (LNA); [hna] = hexitol nucleic acid; [fl2r] = 2'-fluoro
Under this convention, true denotes target mRNA knockdown strictly below 60% and false denotes target mRNA knockdown at or above 60%.

{"Substance": "RNA1{r(A)p.r(G)p.r(A)p.r(A)p.r(G)p.r(G)p.r(A)p.m(C)p.m(U)p.r(A)p.m(C)p.m(U)p.r(A)p.r(A)p.m(C)p.m(C)p.m(U)p.m(C)p.m(C)p.r(T)p.r(T)}|RNA2{r(G)p.r(G)p.r(A)p.r(G)p.r(G)p.r(U)p.r(U)p.r(A)p.r(G)p.r(U)p.r(A)p.r(G)p.r(U)p.r(C)p.r(C)p.r(U)p.r(U)p.r(C)p.r(U)p.r(T)p.r(T)}$$$RNA1{StrandType:ss}|RNA2{StrandType:as}$", "Class Assignment": "false"}
{"Substance": "RNA1{r(G)p.r(G)p.m(U)p.r(A)p.r(G)p.r(A)p.r(A)p.r(U)p.r(A)p.r(G)p.r(G)p.r(U)p.r(U)p.r(U)p.r(U)p.r(C)p.r(C)p.r(C)p.r(C)p.r(T)p.r(T)}|RNA2{r(G)p.r(G)p.r(G)p.r(G)p.r(A)p.r(A)p.r(A)p.r(A)p.r(C)p.r(C)p.m(U)p.r(A)p.r(U)p.r(U)p.r(C)p.r(U)p.r(A)p.r(C)p.r(C)p.r(T)p.r(T)}$$$RNA1{StrandType:ss}|RNA2{StrandType:as}$", "Class Assignment": "false"}
{"Substance": "RNA1{r(G)p.r(A)p.r(C)p.r(G)p.[hna](U)p.r(A)p.r(A)p.[hna](A)p.r(C)p.r(G)p.[hna](G)p.r(C)p.r(C)p.[hna](A)p.r(C)p.r(A)p.r(A)p.r(G)p.[hna](U)p.[hna](U)p.d(T)}|RNA2{r(A)p.r(C)p.[hna](U)p.r(U)p.r(G)p.r(U)p.r(G)p.r(G)p.r(C)p.r(C)p.r(G)p.r(U)p.r(U)p.r(U)p.r(A)p.r(C)p.r(G)p.[hna](U)p.[hna](C)p.[hna](G)p.d(T)}$$$RNA1{StrandType:ss}|RNA2{StrandType:as}$", "Class Assignment": "true"}
{"Substance": "RNA1{[lna](G)p.r(C)p.r(A)p.r(G)p.r(C)p.r(A)p.r(C)p.r(G)p.r(A)p.r(C)p.r(U)p.r(U)p.r(C)p.r(U)p.r(U)p.r(C)p.r(A)p.r(A)p.r(G)p.r(U)p.r(U)}|RNA2{r(C)p.m(U)p.r(U)p.r(G)p.r(A)p.r(A)p.r(G)p.r(A)p.r(A)p.r(G)p.r(U)p.r(C)p.r(G)p.r(U)p.r(G)p.r(C)p.r(U)p.r(G)p.r(C)p.r(U)p.r(U)}$$$RNA1{StrandType:ss}|RNA2{StrandType:as}$", "Class Assignment": "false"}
{"Substance": "RNA1{r(C)p.r(C)p.r(G)p.r(A)p.r(A)p.r(G)p.r(A)p.r(C)p.r(G)p.r(A)p.r(A)p.r(G)p.r(C)p.r(U)p.r(A)p.r(U)p.r(G)p.r(A)p.r(A)p.r(T)p.r(T)}|RNA2{r(U)p.r(U)p.r(C)p.r(A)p.[fl2r](U)p.r(A)p.r(G)p.r(C)p.r(U)p.r(U)p.r(C)p.r(G)p.r(U)p.r(C)p.r(U)p.r(U)p.r(C)p.r(G)p.r(G)p.r(T)p.r(T)}$$$RNA1{StrandType:ss}|RNA2{StrandType:as}$", "Class Assignment": "true"}
{"Substance": "RNA1{r(A)p.r(U)p.r(C)p.r(U)p.r(G)p.r(A)p.r(A)p.r(G)p.r(A)p.r(A)p.r(G)p.r(G)p.r(A)p.r(G)p.r(A)p.r(A)p.r(A)p.r(A)p.r(A)p.r(T)p.r(T)}|RNA2{r(U)p.r(U)p.r(U)p.r(U)p.r(U)p.r(C)p.r(U)p.r(C)p.r(C)p.r(U)p.r(U)p.r(C)p.r(U)p.r(U)p.r(C)p.r(A)p.r(G)p.r(A)p.r(U)p.[lna](T)p.[lna](T)}$$$RNA1{StrandType:ss}|RNA2{StrandType:as}$", "Class Assignment": "false"}
{"Substance": "RNA1{m(A)p.r(G)p.m(C)p.r(G)p.m(A)p.r(U)p.m(C)p.r(C)p.m(C)p.r(G)p.m(A)p.r(A)p.m(C)p.r(A)p.m(A)p.r(G)p.m(U)p.r(A)p.m(U)p.r(T)p.r(T)}|RNA2{r(A)p.r(U)p.r(A)p.m(C)p.r(U)p.r(U)p.r(G)p.r(U)p.r(U)p.m(C)p.r(G)p.r(G)p.r(G)p.r(A)p.r(U)p.m(C)p.r(G)p.m(C)p.r(U)p.r(T)p.r(T)}$$$RNA1{StrandType:ss}|RNA2{StrandType:as}$", "Class Assignment": "true"}
{"Substance": "RNA1{r(A)p.m(U)p.r(A)p.r(C)p.r(U)p.m(U)p.r(G)p.r(G)p.r(C)p.m(G)p.r(G)p.r(G)p.r(C)p.r(U)p.r(C)p.r(U)p.r(U)p.r(U)p.r(C)p.r(T)p.r(T)}|RNA2{r(G)p.r(A)p.r(A)p.r(A)p.r(G)p.r(A)p.r(G)p.r(C)p.r(C)p.r(C)p.r(G)p.r(C)p.m(C)p.r(A)p.r(A)p.r(G)p.m(U)p.r(A)p.r(U)p.r(T)p.r(T)}$$$RNA1{StrandType:ss}|RNA2{StrandType:as}$", "Class Assignment": "true"}
{"Substance": "RNA1{r(A)p.r(A)p.r(C)p.r(U)p.r(C)p.[fl2r](U)p.r(A)p.r(C)p.[fl2r](U)p.r(G)p.[fl2r](U)p.r(G)p.r(G)p.r(A)p.r(G)p.r(U)p.r(C)p.r(G)p.r(G)p.r(T)p.r(T)}|RNA2{r(C)p.r(C)p.r(G)p.r(A)p.r(C)p.r(U)p.r(C)p.[fl2r](C)p.r(A)p.[fl2r](C)p.r(A)p.r(G)p.[fl2r](U)p.r(A)p.r(G)p.r(A)p.r(G)p.r(U)p.r(U)p.r(T)p.r(T)}$$$RNA1{StrandType:ss}|RNA2{StrandType:as}$", "Class Assignment": "false"}
